Listing of recorded remaining activity at 0.5 µM by entry.
- SYSTEM_NAME: steroid sulphatase (STS) (Homo sapiens, UniProt P08842)
- Construct: STS enzyme extracted from human placenta and purified
- Sequence (P08842 22-583): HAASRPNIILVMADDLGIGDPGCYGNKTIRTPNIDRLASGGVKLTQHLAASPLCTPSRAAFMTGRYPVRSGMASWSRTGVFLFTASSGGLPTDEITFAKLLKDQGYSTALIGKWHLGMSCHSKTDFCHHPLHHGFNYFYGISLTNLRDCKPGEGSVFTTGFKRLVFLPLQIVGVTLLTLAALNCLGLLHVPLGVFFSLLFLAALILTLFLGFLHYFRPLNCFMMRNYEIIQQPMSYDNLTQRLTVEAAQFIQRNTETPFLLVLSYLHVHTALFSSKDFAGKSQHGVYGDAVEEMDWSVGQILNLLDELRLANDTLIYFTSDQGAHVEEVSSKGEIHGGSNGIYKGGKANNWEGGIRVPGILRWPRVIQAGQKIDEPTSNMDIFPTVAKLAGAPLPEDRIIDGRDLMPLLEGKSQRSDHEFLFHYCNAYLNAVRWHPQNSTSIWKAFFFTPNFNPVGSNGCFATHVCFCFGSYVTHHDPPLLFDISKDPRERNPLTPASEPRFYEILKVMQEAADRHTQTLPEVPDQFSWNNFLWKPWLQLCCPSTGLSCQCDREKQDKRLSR
- PROCEDURE_TEXT: radiolabelled [3H] oestrone sulphate hydrolysis, purified placental STS, […] inhibitor
- Assay type: biochemical
Provide a numeric answer, followed by its unit.

Here are 3 molecules together with their reported answers.
* NS(=O)(=O)Oc1ccc2cc(-c3cn(-c4ccc(Cl)cc4)nn3)ccc2c1 | 18.7%
* NS(=O)(=O)Oc1ccc2cc(-c3cn(-c4ccc(Br)cc4)nn3)ccc2c1 | 23.1%
* NS(=O)(=O)Oc1ccc2cc(-c3cn(-c4cccc(Cl)c4)nn3)ccc2c1 | 9.66%

Note to self: remaining activity at 0.5 µM recorded for "NS(=O)(=O)Oc1ccc2cc(-c3cn(-c4ccccc4Br)nn3)ccc2c1" was 15.9%

Note to self: remaining activity at 0.5 µM recorded for "NS(=O)(=O)Oc1ccc2cc(-c3cn(-c4cccc(Br)c4)nn3)ccc2c1" was 9.62%

Note to self: remaining activity at 0.5 µM recorded for "NS(=O)(=O)Oc1ccc2cc(-c3cn(-c4cccc(F)c4)nn3)ccc2c1" was 17.4%
